From: paper PMC9230590

# test description: Pharmacokinetics after intravenous injection in mice
# Format: in vivo, ICR mice
# conditions: ICR, mouse, IV 3 mg/kg, plasma
observed property: half-life (h)
Answer format: numeric, h implied, no suffix.

[Q] Query: half-life; subject: OC[C@H]1O[C@@H](c2cc(Cc3ccc(C4CC4)cc3)c(Cl)c3c2CCO3)[C@H](O)[C@@H](O)[C@@H]1O [enavogliflozin]
[A] 6.6

###

# test description: Pharmacokinetics after oral administration in mice
# Assay type: in vivo, ICR mice
# conditions: ICR, mouse, PO 0.3 mg/kg, plasma
observed property: AUC(0-t) (ng·h/mL)
Just the number please, in ng·h/mL, no unit attached.

[Q] Fill in the blank: the reported AUC(0-t) of OC[C@H]1O[C@@H](c2cc(Cc3ccc(C4CC4)cc3)c(Cl)c3c2CCO3)[C@H](O)[C@@H](O)[C@@H]1O is ____.
[A] 488
